Protocol Summary: Cytotoxicity against human A549 cells assessed as viability at 60 uM after 24 hrs by XTT assay
Assay type: cell-based
Condition Info: read-out: Activity
Measured Endpoint: viability at 24 h, 60 µM (%)
The response must be a number in % with no trailing unit.

So what does the record say about viability at 24 h, 60 µM for O=C(Nc1ccccc1C(=O)Nc1ccccc1C(=O)O)c1ccccc1 ?
83

So what does the record say about viability at 24 h, 60 µM for O=C(Nc1cc(F)c(F)cc1C(=O)Nc1ccccc1C(=O)O)c1ccccc1F ?
96

So what does the record say about viability at 24 h, 60 µM for Nc1ccn(C[C@@H](CO)OCP(=O)(O)O)c(=O)n1 ?
98

So what does the record say about viability at 24 h, 60 µM for COc1ccc(C(=O)Nc2ccccc2C(=O)O)c(NC(=O)c2ccccc2F)c1 ?
94

So what does the record say about viability at 24 h, 60 µM for COc1ccc(NC(=O)c2ccccc2F)c(C(=O)Nc2ccccc2C(=O)O)c1 ?
84

So what does the record say about viability at 24 h, 60 µM for O=C(Nc1ccccc1C(=O)Nc1ccccc1C(=O)O)c1ccccc1F ?
83

So what does the record say about viability at 24 h, 60 µM for O=C(Nc1ccc(Cl)cc1C(=O)Nc1ccccc1C(=O)O)c1ccccc1F ?
88

----------
Protocol Summary: Cytotoxicity against human A549 cells assessed as viability at 30 uM after 24 hrs by XTT assay
Assay type: cell-based
Condition Info: read-out: Activity
Record form. Attribute: viability at 24 h, 30 µM. Fill in for each entry.
The response must be a number in % with no trailing unit.

So what does the record say about viability at 24 h, 30 µM for O=C(Nc1cc(F)c(F)cc1C(=O)Nc1ccccc1C(=O)O)c1ccccc1F ?
96

So what does the record say about viability at 24 h, 30 µM for COc1ccc(C(=O)Nc2ccccc2C(=O)O)c(NC(=O)c2ccccc2F)c1 ?
92

So what does the record say about viability at 24 h, 30 µM for O=C(Nc1ccccc1C(=O)Nc1ccccc1C(=O)O)c1ccccc1F ?
85

So what does the record say about viability at 24 h, 30 µM for O=C(Nc1ccc(Cl)cc1C(=O)Nc1ccccc1C(=O)O)c1ccccc1F ?
91

So what does the record say about viability at 24 h, 30 µM for COc1ccc(NC(=O)c2ccccc2F)c(C(=O)Nc2ccccc2C(=O)O)c1 ?
84

So what does the record say about viability at 24 h, 30 µM for Nc1ccn(C[C@@H](CO)OCP(=O)(O)O)c(=O)n1 [CIDOFOVIR] ?
100

So what does the record say about viability at 24 h, 30 µM for O=C(Nc1ccccc1C(=O)Nc1ccccc1C(=O)O)c1ccccc1 ?
82
